Origin of values: paper PMC7826789

- System: HASPIN;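 also: KINOMEscan scanMAX binding as percent activity remaining versus control; lower means stronger binding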
- Construct: gene GSG2
- recorded conditions: Compound Concentration (nM):1000
The reader will find reported Percent Control values listed item by item below.
Returns: string containing the numeric result and its unit.

{"columns": ["molecule", "Percent Control"],
 "data": [
  ["CC1=C(C(=O)Nc2ccc3[nH]ncc3c2)C(c2ccc(Cl)c(Cl)c2)CC(=O)N1 (centres unmarked) [GSK299115A]", "84%"],
  ["Cl.O=C(Nc1ccc(Oc2ccc3[nH]c(NC(=O)c4ccco4)nc3c2)cc1)Nc1cc(C(F)(F)F)ccc1F [GW683134A]", "100%"],
  ["COc1cc2ncnc(Nc3ccc4c(cnn4Cc4ccccc4)c3)c2cc1OC.Cl [GW282449A]", "99%"],
  ["CC1=C(C(=O)Nc2ccc3[nH]ncc3c2)C(c2ccc3ccccc3c2)CC(=O)N1 (centres unmarked) [GSK270822A]", "96%"],
  ["CN(C)CCNC(=O)Nc1ccc(N(C)c2ccnc(Nc3ccc(CS(C)(=O)=O)cc3)n2)cc1.Cl [GW830900A]", "100%"]
]}

### Prompt Fill in the blank: the reported Percent Control of COc1cccc(-c2c[nH]c3c(N/N=C/c4ccncc4)ncnc23)c1 [GW814408X] is ____.
### Response 51%

### Prompt Dear colleague, I am looking for the recorded Percent Control of the following molecule: NS(=O)(=O)c1ccc(N/N=C2\C(=O)Nc3ccc(-c4cnco4)cc32)cc1
### Response 0.3%

### Prompt Need Percent Control of COc1ccc2c(-c3ccnc(Nc4cccc(OC(F)(F)F)c4)n3)cnn2n1 [GW810372X] , thanks.
### Response 72%
